study-target: T1, hIL-4Rα on cells (human, UniProt P24394 26-825)
T1 sequence: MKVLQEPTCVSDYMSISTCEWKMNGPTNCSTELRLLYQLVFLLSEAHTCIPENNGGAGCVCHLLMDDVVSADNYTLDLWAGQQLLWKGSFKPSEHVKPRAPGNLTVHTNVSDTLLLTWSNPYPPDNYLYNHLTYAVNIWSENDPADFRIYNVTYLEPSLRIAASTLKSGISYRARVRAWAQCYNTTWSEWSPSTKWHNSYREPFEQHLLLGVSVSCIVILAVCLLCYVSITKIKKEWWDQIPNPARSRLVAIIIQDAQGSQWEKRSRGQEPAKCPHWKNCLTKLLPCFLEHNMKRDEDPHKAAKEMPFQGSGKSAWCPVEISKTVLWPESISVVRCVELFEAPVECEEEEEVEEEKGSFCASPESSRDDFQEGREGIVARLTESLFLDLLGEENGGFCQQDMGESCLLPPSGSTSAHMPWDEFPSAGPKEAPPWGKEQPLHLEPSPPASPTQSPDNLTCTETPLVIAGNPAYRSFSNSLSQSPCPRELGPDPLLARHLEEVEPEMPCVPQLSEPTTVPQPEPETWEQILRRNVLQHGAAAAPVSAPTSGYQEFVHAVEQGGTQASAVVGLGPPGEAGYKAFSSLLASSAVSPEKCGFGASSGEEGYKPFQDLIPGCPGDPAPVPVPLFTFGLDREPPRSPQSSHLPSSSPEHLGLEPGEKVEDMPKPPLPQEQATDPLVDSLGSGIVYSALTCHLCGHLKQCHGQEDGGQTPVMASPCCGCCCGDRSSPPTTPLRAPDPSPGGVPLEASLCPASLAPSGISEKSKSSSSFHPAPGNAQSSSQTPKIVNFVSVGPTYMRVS
experimental-details: cell-based or functional assay
property: Relative Inhibition of IL-4 induced TARC IC50

>  <binder>
Construct 39 (mAb473) (antibody, IgG4, V domains shown, VH/VL only) VH: EVQLVESGGGLEQPGGSLRLSCAGSGFTFRDSAMTWVRQAPGKGLEWVSSISGSGDNTYYADSVKGRFTISRDNSKNTLYLQMNSLRAEDTAVYYCAKDRLSITVRPRYYGLDVWGQGTTVTVSS VL: DIVMTQSPLSLPVTPGEPASISCRSSQSLLYSIGKNYVDWYLQKSGQSPQLLIYLGNKRASGVPDRFSGSGSGTDFTLKISRVEAEDVGFYYCMQALGSPYTFGQGTKLEIK

>  <observed-measurement>
1.65 relative to dupilumab

$$$$
